Target: T1, PRLR-expressing cells (T47D) (Homo sapiens, UniProt P16471)
T1 construct: a native PRLR expressing cell line (T47D); endogenous in cells; host or cells: T47D
T1 sequence (P16471 25-622): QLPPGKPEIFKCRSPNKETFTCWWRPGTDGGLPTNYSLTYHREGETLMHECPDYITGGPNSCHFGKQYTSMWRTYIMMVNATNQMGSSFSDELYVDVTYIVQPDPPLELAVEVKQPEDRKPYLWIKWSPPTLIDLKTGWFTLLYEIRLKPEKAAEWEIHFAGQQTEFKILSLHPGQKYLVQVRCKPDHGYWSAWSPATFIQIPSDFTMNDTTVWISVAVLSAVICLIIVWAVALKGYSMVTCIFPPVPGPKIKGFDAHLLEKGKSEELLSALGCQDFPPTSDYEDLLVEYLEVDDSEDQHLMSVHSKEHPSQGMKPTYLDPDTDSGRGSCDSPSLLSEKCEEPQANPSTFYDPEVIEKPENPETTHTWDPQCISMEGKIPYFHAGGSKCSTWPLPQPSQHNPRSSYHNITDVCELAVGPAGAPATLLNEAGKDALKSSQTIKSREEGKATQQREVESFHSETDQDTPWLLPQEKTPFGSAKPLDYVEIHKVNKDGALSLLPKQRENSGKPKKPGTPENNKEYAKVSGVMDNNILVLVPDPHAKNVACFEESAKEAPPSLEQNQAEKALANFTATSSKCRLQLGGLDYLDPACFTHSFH
Assay: Antibody binding and internalization by PRLR-expressing cells (imaging)
Assay type: cell-based
Details: [mAb] (0.67 nM), whole cell alexa488 intensity at 37° C.
Endpoint label: % Total Binding relative to Control I (%)

Molecule	Endpoint label	Experimental result
H1H6785P: anti-PRLR antibody, human IgG1 Fc; HCVR/LCVR SEQ ID NOs 98/106 (antibody, V domains shown, human IgG1 Fc) VH: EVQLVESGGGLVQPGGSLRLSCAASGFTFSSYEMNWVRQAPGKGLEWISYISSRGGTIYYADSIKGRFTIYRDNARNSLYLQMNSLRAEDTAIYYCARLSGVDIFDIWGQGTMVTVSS VL: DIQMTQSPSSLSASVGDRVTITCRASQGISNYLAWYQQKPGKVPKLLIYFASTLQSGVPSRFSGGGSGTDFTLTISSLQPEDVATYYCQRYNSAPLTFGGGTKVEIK	% Total Binding relative to Control I	168.0
H1H6976N: human IgG1 Fc form of H2M6976N; anti-PRLR; HCVR/LCVR SEQ ID NOs 386/394 (antibody, V domains shown, human IgG1 Fc) VH: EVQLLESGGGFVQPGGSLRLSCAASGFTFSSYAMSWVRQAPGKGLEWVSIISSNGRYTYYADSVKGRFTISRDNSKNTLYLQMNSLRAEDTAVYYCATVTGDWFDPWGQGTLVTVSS VL: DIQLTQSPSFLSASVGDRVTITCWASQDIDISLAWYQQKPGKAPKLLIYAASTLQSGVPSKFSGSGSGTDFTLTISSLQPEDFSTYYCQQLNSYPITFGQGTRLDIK	% Total Binding relative to Control I	180.4

# credit: patent US9688764B2
